Consider the following binders; for each one, report its kon.
- measured.target: T1, Human SIRPαV2 (CAA71403.1), Extracellular Domain + His-Tag (human, UniProt P78324 31-373)
- T1 construct: also called huSIRPαV2; hSIRPαV2; not shown: His-Tag
- T1 sequence (P78324 other isoform, or with tags, fused parts or gaps): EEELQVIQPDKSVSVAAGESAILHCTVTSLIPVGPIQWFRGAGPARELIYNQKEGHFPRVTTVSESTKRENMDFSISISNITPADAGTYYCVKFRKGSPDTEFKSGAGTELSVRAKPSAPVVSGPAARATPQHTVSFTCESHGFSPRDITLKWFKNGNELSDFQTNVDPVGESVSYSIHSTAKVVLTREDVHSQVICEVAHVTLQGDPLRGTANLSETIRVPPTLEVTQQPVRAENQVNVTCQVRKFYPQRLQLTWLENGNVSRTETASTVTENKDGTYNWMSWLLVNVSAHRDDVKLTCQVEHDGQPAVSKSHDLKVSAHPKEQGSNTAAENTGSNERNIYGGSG
- assay.details: SPR, antibody captured on Protein A/G, ECD-His analyte, 1:1 fit

Value of measured kon for the entry Antibody E19 (antibody, human IgG1, kappa, L234A L235A, V domains shown) VH: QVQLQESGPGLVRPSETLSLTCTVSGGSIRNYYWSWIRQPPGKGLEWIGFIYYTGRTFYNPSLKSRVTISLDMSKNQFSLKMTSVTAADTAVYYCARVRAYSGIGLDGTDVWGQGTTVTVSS VL: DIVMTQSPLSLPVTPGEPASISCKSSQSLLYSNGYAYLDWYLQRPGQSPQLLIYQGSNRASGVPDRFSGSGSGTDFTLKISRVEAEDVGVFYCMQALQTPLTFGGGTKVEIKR : 411000 M⁻¹ s⁻¹

Value of measured kon for the entry Antibody E16 (antibody, human IgG1, kappa, L234A L235A, V domains shown) VH: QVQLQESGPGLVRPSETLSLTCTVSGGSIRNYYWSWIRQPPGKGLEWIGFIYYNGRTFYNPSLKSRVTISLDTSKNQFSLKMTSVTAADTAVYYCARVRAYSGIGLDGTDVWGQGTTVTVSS VL: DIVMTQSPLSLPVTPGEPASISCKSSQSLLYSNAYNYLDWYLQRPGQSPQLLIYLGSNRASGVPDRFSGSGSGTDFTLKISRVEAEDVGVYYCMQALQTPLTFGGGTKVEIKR : 547000 M⁻¹ s⁻¹
